All figures here come from patent US20260242735A1.

target: human CD33 T192A (human, UniProt P20138 18-364); assay: alanine scan, flow cytometry, HEK293-T;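 further: antibody binding to each alanine-substituted CD33 mutant expressed transiently in HEK293-T, read as fluorescence minus background, mean of duplicates, relative to wild-type CD33 set as 100%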
Sequence (P20138 18-364 T192A limits assumed): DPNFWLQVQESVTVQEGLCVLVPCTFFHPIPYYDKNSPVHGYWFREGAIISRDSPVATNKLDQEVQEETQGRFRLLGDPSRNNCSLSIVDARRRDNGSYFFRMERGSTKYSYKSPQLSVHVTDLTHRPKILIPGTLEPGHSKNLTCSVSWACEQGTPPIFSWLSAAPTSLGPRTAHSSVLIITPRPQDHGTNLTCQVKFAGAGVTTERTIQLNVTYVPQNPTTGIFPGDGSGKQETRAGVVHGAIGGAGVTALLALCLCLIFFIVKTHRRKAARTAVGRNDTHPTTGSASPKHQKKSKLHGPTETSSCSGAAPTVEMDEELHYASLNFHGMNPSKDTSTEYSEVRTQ
# Mean % WT Binding per entry
The figure you give is taken to be in %; do not add the unit.

Incoming: For the binder shown here, Refmab #2 (antibody, V domains shown, In the alanine scan antibodies were used as IgG or Fab) VH: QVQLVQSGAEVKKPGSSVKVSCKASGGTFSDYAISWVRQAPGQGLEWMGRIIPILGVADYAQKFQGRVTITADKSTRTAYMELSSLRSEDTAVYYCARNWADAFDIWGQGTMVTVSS VL: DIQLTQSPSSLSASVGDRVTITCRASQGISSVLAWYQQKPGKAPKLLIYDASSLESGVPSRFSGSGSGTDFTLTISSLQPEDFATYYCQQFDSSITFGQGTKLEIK , give the reported Mean % WT Binding.
Outgoing: 119

Incoming: Sample Refmab #3 (antibody, V domains shown, In the alanine scan antibodies were used as IgG or Fab) VH: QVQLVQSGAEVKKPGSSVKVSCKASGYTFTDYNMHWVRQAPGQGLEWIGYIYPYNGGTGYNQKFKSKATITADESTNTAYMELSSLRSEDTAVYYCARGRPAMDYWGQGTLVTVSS VL: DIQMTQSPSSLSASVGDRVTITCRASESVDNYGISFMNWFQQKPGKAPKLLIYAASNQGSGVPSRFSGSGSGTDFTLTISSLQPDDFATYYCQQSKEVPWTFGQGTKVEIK — what was its Mean % WT Binding?
Outgoing: 102

Incoming: Returns the measured Mean % WT Binding for the input binder. Input: Refmab #1 (antibody, V domains shown, In the alanine scan antibodies were used as IgG or Fab; also called hP67.6) VH: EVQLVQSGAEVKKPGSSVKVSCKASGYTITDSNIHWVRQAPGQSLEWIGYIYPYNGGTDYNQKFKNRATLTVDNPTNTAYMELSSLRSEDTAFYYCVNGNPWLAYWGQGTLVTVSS VL: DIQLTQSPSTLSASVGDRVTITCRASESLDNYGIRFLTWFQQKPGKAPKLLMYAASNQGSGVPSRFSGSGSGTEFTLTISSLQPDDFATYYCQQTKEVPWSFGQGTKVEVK
Outgoing: 101

Incoming: Given the entry Refmab #4 (antibody, V domains shown, In the alanine scan antibodies were used as IgG or Fab) VH: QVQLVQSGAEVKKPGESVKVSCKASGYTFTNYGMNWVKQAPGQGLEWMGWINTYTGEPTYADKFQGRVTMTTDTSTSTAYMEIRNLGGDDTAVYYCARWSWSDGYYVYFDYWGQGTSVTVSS VL: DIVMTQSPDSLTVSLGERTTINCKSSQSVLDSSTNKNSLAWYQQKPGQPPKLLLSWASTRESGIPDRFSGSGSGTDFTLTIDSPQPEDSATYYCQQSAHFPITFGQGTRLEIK , report its measured Mean % WT Binding.
Outgoing: 99.7
